These data points were gathered from patent US9643974B2.

Target: human full-lengt MKNK1 (Homo sapiens, UniProt Q9BUB5, T385D)
Sequence (Q9BUB5 1-424 isoform Q9BUB5-2 T344D): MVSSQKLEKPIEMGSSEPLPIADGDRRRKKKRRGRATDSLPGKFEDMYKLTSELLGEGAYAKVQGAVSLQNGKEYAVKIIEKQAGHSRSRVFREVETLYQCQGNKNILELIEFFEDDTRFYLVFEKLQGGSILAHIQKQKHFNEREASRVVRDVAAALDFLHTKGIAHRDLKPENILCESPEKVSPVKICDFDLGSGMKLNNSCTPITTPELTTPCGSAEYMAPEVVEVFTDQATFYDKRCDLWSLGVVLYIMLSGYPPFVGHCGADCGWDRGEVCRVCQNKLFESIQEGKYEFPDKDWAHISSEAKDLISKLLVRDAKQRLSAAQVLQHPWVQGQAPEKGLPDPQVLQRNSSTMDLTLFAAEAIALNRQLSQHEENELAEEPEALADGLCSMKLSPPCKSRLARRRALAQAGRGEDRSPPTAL
Assay: MKNK1 kinase assay (MKNK1 TR-FRET assay)
Conditions: ATP final conc. 10 μM, 15 min preincubation, 45 min reaction at 22° C.
pIC50: −log10 of the molar value.
readoutLabel: pIC50

Please review the entries below; each comes with its answer.
CCOc1nccc2oc(-c3cnc4ccc(OC[C@@H](C)N)nn34)cc12: 8.10
C[C@H](N)COc1ccc2ncc(-c3cc4c(OCC5CC5)nccc4o3)n2n1: 7.80
N[C@@H](COc1ccc2ncc(-c3cc4cnccc4o3)n2n1)c1ccccc1: 7.60
COc1nccc2oc(-c3cnc4ccc(O[C@H](C)CN)nn34)cc12: 7.64

a: N[C@H]1C[C@H](Oc2ccc3ncc(-c4cc5cnccc5o4)n3n2)C1 [Example 29]
b: COc1nccc2oc(-c3cnc4ccc(O[C@H]5CCC[C@@H]5N)nn34)cc12
c: CCNc1nccc2oc(-c3cnc4ccc(OC[C@H](C)N)nn34)cc12
d: C[C@H](CN)Oc1ccc2ncc(-c3cc4cnccc4o3)n2n1
**Query** Put the entries in order of pIC50, starting with the largest number. Arrange the labels as the request states and list them.
**Result** c, a, b, d
(c: 8.30, a: 8.10, b: 7.89, d: 7.55)

* * *

Target: human full-lengt MKNK1 (Homo sapiens, UniProt Q9BUB5, T385D)
Experiment: MKNK1 kinase assay (MKNK1 TR-FRET assay)
Settings: ATP final conc. 10 μM, 15 min preincubation, 45 min reaction at 22° C.
pIC50: −log10 of the molar value.
readoutLabel: pIC50

Please review the entries below; each comes with its answer.
N[C@H](COc1ccc2ncc(-c3cc4cnccc4o3)n2n1)c1ccccc1: 7.77
COc1nccc2oc(-c3cnc4ccc(OC[C@H](C)N)nn34)cc12: 7.68
COc1nccc2oc(-c3cnc4ccc(OCC(CN)c5ccccc5)nn34)cc12 (centres unmarked): 7.49
COc1nccc2oc(-c3cnc4ccc(OC[C@@H](C)N)nn34)cc12: 7.96
COc1nccc2oc(-c3cnc4ccc(OC[C@@H](N)[C@@H](C)OCc5ccccc5)nn34)cc12: 7.47

A: COc1nccc2oc(-c3cnc4ccc(OC[C@H](N)CO)nn34)cc12
B: COc1nccc2oc(-c3cnc4ccc(OC[C@H](N)c5ccccc5)nn34)cc12
C: C[C@H](N)COc1ccc2ncc(-c3cc4c(OCC(C)(C)C)nccc4o3)n2n1
D: COc1nccc2oc(-c3cnc4ccc(OC[C@@H](N)c5ccccc5)nn34)cc12
**Query** Put the entries in order of pIC50, starting with the largest number. Arrange the labels as the request states and list them.
**Result** C, A, D, B

P: COc1nccc2oc(-c3cnc4ccc(OCC(C)(C)N)nn34)cc12
Q: N[C@H]1C[C@H](Oc2ccc3ncc(-c4cc5ncccc5o4)n3n2)C1
**Query** Hi! Which is lower in terms of pIC50, the first one P or the second one Q ? Respond with the label that goes with your answer.
**Result** P
(P: 7.85, Q: 8.15)

a: CC(C)Oc1nccc2oc(-c3cnc4ccc(OC[C@H](C)N)nn34)cc12
b: CC(C)Oc1nccc2oc(-c3cnc4ccc(O[C@H]5C[C@H](N)C5)nn34)cc12
**Query** Hi! Which is lower in terms of pIC50, the first one a or the second one b ? Respond with the label that goes with your answer.
**Result** a
